Tested on: HepG2
Experiment: cell viability relative to DMSO; higher = less toxic
Conditions: 72 h; 10 nM
For each record, write down the corresponding cell viability.
Enter your answer as a number in %; do not include the unit.

Tell me the measured cell viability of CN(C)CC/C=C1/c2ccccc2COc2ccccc21 [doxepin] , please. 85.4

Let us now turn to O=Nc1ccc(O)c2ncccc12 89.6

Also, Nc1cc(Cl)c(N=C2NCCN2)c(Cl)c1 please. 96.7

// query: Cn1cc([S+](C)[O-])c(=O)c2ccc(F)cc21 (stereo unspecified) 97.9

Note, next up: COc1c(O[C@@H]2O[C@H](CO)[C@@H](O)[C@H](O)[C@H]2O)cc2c(c1OC)-c1ccc(SC)c(=O)cc1[C@@H](NC(C)=O)CC2 [thiocolchicoside] 100

And for CC[n+]1c(-c2ccccc2)c2cc(N)ccc2c2ccc(N)cc21 ? 101
